The reported measurements were obtained from ChEMBL document CHEMBL1130142.

- Test system: Rattus norvegicus
- Assay Explanation: Concentration which increases the arterial blood pressure by 20 mmHg in the pithed rat in vivo by intravenous administration
- Type: functional, Artery
Provide the recorded C20 for the entries that follow.

Worked cases, answers included:
Cc1ccc2c(c1)C[C@@]1(CC2)CN=CN1 = 5.8 µg/kg
Cc1ccc2c(c1)C[C@]1(CC2)CN=CN1 = 44.8 µg/kg
Cc1ccc2c(c1)CC1(CC2)CN=CN1 (centres undefined) = 6.7 µg/kg

Please fill in: C20 reported for FC(F)(F)c1ccc(Cl)c(NC2=NCCN2)c1 = 8.6 µg/kg
